As shown below, each of these compounds has a reported TGI value.
# System: SK-OV-3 ovarian
# ASSAY PROTOCOL: NCI tumour cell line growth inhibition, 48 h

Before answering, review these 2 worked examples.
| COMPOUND | REPORTED VALUE |
| --- | --- |
| O=C(Nc1ccn(CCO)c(=O)n1)c1ccccc1 | > 100 µM |
| CC(=O)N(C(C)=O)c1ncc(-n2nc(-c3ccccc3)cc2-c2ccccc2)c(-c2ccccc2)n1 | > 10 µM |

Request: Report TGI, nothing else, for this compound: "[N-]=[N+]=Nc1c([N+](=O)[O-])c(=O)n(-c2ccccc2)c2ccccc12"
Response: > 100 µM

Request: Report TGI, nothing else, for this compound: "CCOC(=O)c1cnc2c(ccc3[nH]n(C)nc32)c1=O"
Response: > 100 µM

Request: Report TGI, nothing else, for this compound: [N-]=[N+]=NC1(Cc2ccccc2)C(=O)c2cccc3c2N(CCC3)C1=O (stereo unspecified)
Response: > 100 µM

Request: Report TGI, nothing else, for this compound: CC1=C(C(=O)Nc2ccc(F)c(Cl)c2)C(c2ccccc2O)NC(=S)N1 (stereo unspecified)
Response: > 50 µM

Request: Report TGI, nothing else, for this compound: "CC[As](CC)SC[C@H](C)C(=O)N1CCC[C@H]1C(=O)O"
Response: 1.05 µM

Request: Report TGI, nothing else, for this compound: O=C1CCC(Cl)=CC2CCCN12 (stereo unspecified)
Response: > 100 µM

Request: Report TGI, nothing else, for this compound: "Cc1ccnc2[nH]c(-c3ccc4ccccc4c3)cc(=O)c12"
Response: 5.32 µM

Request: Report TGI, nothing else, for this compound: "CSc1nc(=O)n(CCC#N)nc1SC"
Response: > 100 µM

Request: Report TGI, nothing else, for this compound: "CN(CCSCCN(C)C(=O)OC(C)(C)C)C(=O)OC(C)(C)C"
Response: > 100 µM
